Biological target: T1, mouse CD47 (mouse) (UniProt Q61735)
T1 sequence (looked up): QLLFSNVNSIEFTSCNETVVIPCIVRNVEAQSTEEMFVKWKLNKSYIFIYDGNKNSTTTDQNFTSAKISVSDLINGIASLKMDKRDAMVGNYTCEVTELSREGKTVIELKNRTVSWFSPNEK
Assay: ELISA, coated mouse CD47 ECD Fc, supernatant, anti-c-Myc HRP
ENDPOINT: mCD47 binding (OD)

[I] 4RP13-3-10B (designed binder) hSIRPα IgV domain mutant: EEELQVIQPDKSVSVAAGESAILHCTVTSLYPVGPIQWFRGAGPARELIYNQKGRRFPRVTTVSESTKRANMDFSISISNITPADAGTYYCVKFRKGSPDTEFKSGAGTELSVRAKPS
[II] 2RP-1-3E (designed binder) hSIRPα IgV domain mutant: EEELQVIQPDKSVSVAAGESAILTCTVTSLWPVGPIQWFRGAGPARELIYNQKGQNFPRVTTVSESTKRFNMDFSISISNITPADAGTYYCVKFRKGSPDTEFKSGAGTELSVRAKPS
Please let me know which one, I or II , has a lower measured mCD47 binding (OD) value. Mark your answer with the label of the selected entry.
II
(II: 0.113 OD, I: 0.17 OD)
